Data origin: patent US10988481B2

target: DOR (Homo sapiens (Human)); experiment: Competition binding assay at DOR ([3H]DPN, CHO cell membranes); conditions: [3H]DPN, DOR CHO membranes; read-out: Ki (nM) ± SEM δ
Sequence (P41143 whole entry, looked up): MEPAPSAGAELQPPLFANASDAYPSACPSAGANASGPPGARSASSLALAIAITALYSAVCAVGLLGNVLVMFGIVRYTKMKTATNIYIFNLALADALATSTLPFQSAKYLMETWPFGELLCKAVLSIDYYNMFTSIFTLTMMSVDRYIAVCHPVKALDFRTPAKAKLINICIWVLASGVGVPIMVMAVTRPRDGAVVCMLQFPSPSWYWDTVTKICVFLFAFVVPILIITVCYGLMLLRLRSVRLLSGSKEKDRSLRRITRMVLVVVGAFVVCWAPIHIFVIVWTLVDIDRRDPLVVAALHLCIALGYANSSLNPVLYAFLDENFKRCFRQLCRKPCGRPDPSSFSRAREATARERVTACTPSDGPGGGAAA
Consider the following molecules; for each one, report its Ki.

Solved entries (count: 5):
>>> print(df.to_string())
                                   molecule  readout_value
0  Cl.O=C(CCCc1c[nH]c2ccccc12)N[C@H]1CC[C@@]2(O)[C@H]3Cc4ccc(O)c5c4[C@@]2(CCN3CC2CC2)[C@H]1O5 [Compound 9]        6.73 nM
1  Cl.O=C(Cc1c[nH]c2ccccc12)N[C@H]1CC[C@@]2(O)[C@H]3Cc4ccc(O)c5c4[C@@]2(CCN3CC2CC2)[C@H]1O5 [Compound 7]        9.17 nM
2  Cl.O=C(N[C@H]1CC[C@@]2(O)[C@H]3Cc4ccc(O)c5c4[C@@]2(CCN3CC2CC2)[C@H]1O5)c1cccc2cc[nH]c12 [Compound 6]        10.9 nM
3  Cl.O=C(N[C@H]1CC[C@@]2(O)[C@H]3Cc4ccc(O)c5c4[C@@]2(CCN3CC2CC2)[C@H]1O5)c1ccc2[nH]ccc2c1 [Compound 4]        26.7 nM
4  Cl.O=C(CCCc1c[nH]c2ccccc12)N[C@@H]1CC[C@@]2(O)[C@H]3Cc4ccc(O)c5c4[C@@]2(CCN3CC2CC2)[C@H]1O5 [Compound 18]        25.3 nM

Please look at the following molecule next.
Reported Ki for Cl.O=C(N[C@H]1CC[C@@]2(O)[C@H]3Cc4ccc(O)c5c4[C@@]2(CCN3CC2CC2)[C@H]1O5)c1c[nH]c2ccccc12 [Compound 2] was 10.5 nM

* * *

Molecular target: KOR (Homo sapiens (Human))
Assay: Competition binding assay at KOR ([3H]DPN, CHO cell membranes)
Conditions: [3H]DPN, KOR CHO membranes; read-out: Ki (nM) ± SEM κ
Procedure: Chinese hamster ovary (CHO) cells expressing MOR, KOR and DOR were cultured for use in this assay. The culture media used for MOR CHO cells contained 500 mL DMEM/F12 media, 10% FBS, 1% penicillin/streptomycin, and 2.75 mL G418. […] The competition binding assay was conducted to determine the affinity and selectivity of the synthesized compounds to MOR over KOR and DOR. The Kd and Bmax values for [^3H]NLX at MOR and [^3H]DPN at KOR had been determined previously. […]
ENDPOINT_NAME: Ki
Put your answer as a value accompanied by its unit after it.

Solved entries (count: 4):
                                smiles_repr  readout_value
0  Cl.O=C(N[C@H]1CC[C@@]2(O)[C@H]3Cc4ccc(O)c5c4[C@@]2(CCN3CC2CC2)[C@H]1O5)c1ccc2cc[nH]c2c1        1.63 nM
1  Cl.O=C(Cc1c[nH]c2ccccc12)N[C@H]1CC[C@@]2(O)[C@H]3Cc4ccc(O)c5c4[C@@]2(CCN3CC2CC2)[C@H]1O5        3.13 nM
2  Cl.O=C(N[C@H]1CC[C@@]2(O)[C@H]3Cc4ccc(O)c5c4[C@@]2(CCN3CC2CC2)[C@H]1O5)c1ccc2[nH]ccc2c1        3.45 nM
3  Cl.O=C(N[C@H]1CC[C@@]2(O)[C@H]3Cc4ccc(O)c5c4[C@@]2(CCN3CC2CC2)[C@H]1O5)c1cccc2[nH]ccc12        1.49 nM

// input: 2 molecules below; output: Ki for each
1. Cl.O=C(N[C@H]1CC[C@@]2(O)[C@H]3Cc4ccc(O)c5c4[C@@]2(CCN3CC2CC2)[C@H]1O5)c1cc2ccccc2[nH]1
2. Cl.O=C(CCc1c[nH]c2ccccc12)N[C@H]1CC[C@@]2(O)[C@H]3Cc4ccc(O)c5c4[C@@]2(CCN3CC2CC2)[C@H]1O5

Reply:
1. 0.926 nM
2. 1.36 nM

* * *

target: KOR (Homo sapiens (Human)); assay: Competition binding assay at KOR ([3H]DPN, CHO cell membranes); conditions: [3H]DPN, KOR CHO membranes; read-out: Ki (nM) ± SEM κ
ENDPOINT_NAME: Ki (nM)
One number for each entry, in nM.

In [3]: df
Out[3]:
                                smiles_repr  endpoint_name  readout_value
0  Cl.O=C(Cc1c[nH]c2ccccc12)N[C@@H]1CC[C@@]2(O)[C@H]3Cc4ccc(O)c5c4[C@@]2(CCN3CC2CC2)[C@H]1O5             Ki          0.947
1  Cl.O=C(N[C@H]1CC[C@@]2(O)[C@H]3Cc4ccc(O)c5c4[C@@]2(CCN3CC2CC2)[C@H]1O5)c1cccc2cc[nH]c12             Ki           1.69
2  Cl.O=C(CCCc1c[nH]c2ccccc12)N[C@@H]1CC[C@@]2(O)[C@H]3Cc4ccc(O)c5c4[C@@]2(CCN3CC2CC2)[C@H]1O5             Ki          0.175
3  Cl.O=C(CCc1c[nH]c2ccccc12)N[C@@H]1CC[C@@]2(O)[C@H]3Cc4ccc(O)c5c4[C@@]2(CCN3CC2CC2)[C@H]1O5             Ki          0.387
4  Cl.O=C(N[C@H]1CC[C@@]2(O)[C@H]3Cc4ccc(O)c5c4[C@@]2(CCN3CC2CC2)[C@H]1O5)c1c[nH]c2ccccc12             Ki          0.984

Reported Ki for Cl.O=C(CCCc1c[nH]c2ccccc12)N[C@H]1CC[C@@]2(O)[C@H]3Cc4ccc(O)c5c4[C@@]2(CCN3CC2CC2)[C@H]1O5 was 0.149

* * *

biological target: KOR (Homo sapiens (Human), UniProt P41145); assay: Competition binding assay at KOR ([3H]DPN, CHO cell membranes)
ENDPOINT_NAME: Ki

Solved entries (count: 2):
>>> df
                                smiles_repr  readout_value
0  Cl.O=C(N[C@@H]1CC[C@@]2(O)[C@H]3Cc4ccc(O)c5c4[C@@]2(CCN3CC2CC2)[C@H]1O5)c1cccc2cc[nH]c12        0.52 nM
1  O=C(N[C@@H]1CC[C@@]2(O)[C@H]3Cc4ccc(O)c5c4[C@@]2(CCN3CC2CC2)[C@H]1O5)c1c[nH]c2ccccc12        0.16 nM

Reported Ki for Cl.O=C(N[C@@H]1CC[C@@]2(O)[C@H]3Cc4ccc(O)c5c4[C@@]2(CCN3CC2CC2)[C@H]1O5)c1ccc2[nH]ccc2c1 was 0.512 nM

* * *

target: MOR (Mus musculus); format: biochemical; conditions: relative to 3 μM DAMGO at MOR
Sequence (P42866 whole entry, looked up): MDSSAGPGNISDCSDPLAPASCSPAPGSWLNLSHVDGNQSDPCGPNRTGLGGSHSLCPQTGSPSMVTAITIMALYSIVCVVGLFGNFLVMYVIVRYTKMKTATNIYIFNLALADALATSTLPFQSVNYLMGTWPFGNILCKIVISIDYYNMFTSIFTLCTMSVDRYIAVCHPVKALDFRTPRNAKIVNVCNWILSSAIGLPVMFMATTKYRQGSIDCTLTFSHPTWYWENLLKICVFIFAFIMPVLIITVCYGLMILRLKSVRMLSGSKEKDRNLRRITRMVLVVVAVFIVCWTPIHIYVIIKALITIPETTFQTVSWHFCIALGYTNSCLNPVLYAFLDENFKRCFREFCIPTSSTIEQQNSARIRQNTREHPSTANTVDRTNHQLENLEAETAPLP
Consider the following compounds; for each one, report its Emax(% DAMGO) ± SEM.
One number for each entry, in % DAMGO.

Solved entries (count: 5):
>>> print(df.to_string())
                                smiles_repr        endpoint_name  unit_symbol  readout_value
0  Cl.O=C(N[C@@H]1CC[C@@]2(O)[C@H]3Cc4ccc(O)c5c4[C@@]2(CCN3CC2CC2)[C@H]1O5)c1cccc2[nH]ccc12  Emax(% DAMGO) ± SEM      % DAMGO          15.21
1  Cl.O=C(N[C@H]1CC[C@@]2(O)[C@H]3Cc4ccc(O)c5c4[C@@]2(CCN3CC2CC2)[C@H]1O5)c1cccc2[nH]ccc12  Emax(% DAMGO) ± SEM      % DAMGO           28.9
2  Cl.O=C(N[C@@H]1CC[C@@]2(O)[C@H]3Cc4ccc(O)c5c4[C@@]2(CCN3CC2CC2)[C@H]1O5)c1ccc2[nH]ccc2c1  Emax(% DAMGO) ± SEM      % DAMGO          20.15
3  Cl.O=C(Cc1c[nH]c2ccccc12)N[C@@H]1CC[C@@]2(O)[C@H]3Cc4ccc(O)c5c4[C@@]2(CCN3CC2CC2)[C@H]1O5  Emax(% DAMGO) ± SEM      % DAMGO          50.17
4  Cl.O=C(N[C@H]1CC[C@@]2(O)[C@H]3Cc4ccc(O)c5c4[C@@]2(CCN3CC2CC2)[C@H]1O5)c1ccc2[nH]ccc2c1  Emax(% DAMGO) ± SEM      % DAMGO           32.2

Please look at the following compound next.
Reported Emax(% DAMGO) ± SEM for Cl.O=C(N[C@@H]1CC[C@@]2(O)[C@H]3Cc4ccc(O)c5c4[C@@]2(CCN3CC2CC2)[C@H]1O5)c1cccc2cc[nH]c12 was 32.0

* * *

biological target: DOR (Homo sapiens (Human)); experiment: Competition binding assay at DOR ([3H]DPN, CHO cell membranes); conditions: [3H]DPN, DOR CHO membranes; read-out: Ki (nM) ± SEM δ
ENDPOINT_NAME: Ki (nM)
Numbers only, in nM.

Solved entries (count: 5):
>>> df
                                smiles_repr  endpoint_name  unit_symbol  readout_value
0  Cl.O=C(N[C@H]1CC[C@@]2(O)[C@H]3Cc4ccc(O)c5c4[C@@]2(CCN3CC2CC2)[C@H]1O5)c1cc2ccccc2[nH]1             Ki           nM           14.2
1  Cl.O=C(CCc1c[nH]c2ccccc12)N[C@H]1CC[C@@]2(O)[C@H]3Cc4ccc(O)c5c4[C@@]2(CCN3CC2CC2)[C@H]1O5             Ki           nM           31.2
2  Cl.O=C(N[C@H]1CC[C@@]2(O)[C@H]3Cc4ccc(O)c5c4[C@@]2(CCN3CC2CC2)[C@H]1O5)c1cccc2[nH]ccc12             Ki           nM           9.26
3  Cl.O=C(CCc1c[nH]c2ccccc12)N[C@@H]1CC[C@@]2(O)[C@H]3Cc4ccc(O)c5c4[C@@]2(CCN3CC2CC2)[C@H]1O5             Ki           nM             49
4  Cl.O=C(Cc1c[nH]c2ccccc12)N[C@@H]1CC[C@@]2(O)[C@H]3Cc4ccc(O)c5c4[C@@]2(CCN3CC2CC2)[C@H]1O5             Ki           nM             37

Please look at the following compound next.
Reported Ki for Cl.O=C(N[C@H]1CC[C@@]2(O)[C@H]3Cc4ccc(O)c5c4[C@@]2(CCN3CC2CC2)[C@H]1O5)c1ccc2cc[nH]c2c1 was 12.8
